tested target: EGFRvIII (UniProt P00533)
assay text: BLI
run conditions: P = 2Nap-dU (5-[N-(2-naphthylmethyl)carboxamide]-2'-deoxyuridine), written as T at 5,9,13,18,19,20,25,26,27,35,42; T1 printed as T; inverted dT at the end; BLI: association 200 s, dissociation 400 s, PBS + 0.05% Tween-20 (stated for NOTA-aptamer dissociation), protein loading at room temperature; cells: DPBS …
parameter: Kd (nM)
Form entry: value (nM) — number only.

**Query** Supply recorded Kd for TGAGTAAGTGAGTACCGTTTGCGATTTGGAGAACTACGCAATCA [EGFRvIII aptamer (44 nt)] here.
**Result** 0.87

###

tested target: EGFRvIII (UniProt P00533)
assay text: BLI
run conditions: protein on Ni-NTA probe, 125-500 nM aptamer, PBS 0.05% Tween-20; 2Nap-dU written as T at 5,9,13,18,19,20,25,26,27,35,42; inverted dT at the end; 5'-amine conjugated to p-SCN-Bn-NOTA; BLI: association 200 s, dissociation 400 s, PBS + 0.05% Tween-20 (stated for NOTA-aptamer dissociation), protein loading at room temperature; cells: DPBS …
parameter: pKd
Note: pKd values are expressed as the negative base-10 logarithm of concentration in M.

**Query** Supply recorded pKd for TGAGTAAGTGAGTACCGTTTGCGATTTGGAGAACTACGCAATCA [NOTA-EGFRvIII aptamer] here.
**Result** 8.69
